- Tested on: HOP-62 NSCLC
- run-description: NCI-60 one-dose screen, 48 h
- condition-details: 10 µM unless noted
This is part of a sample that, as a whole, favours compounds with a hit. Of some 83,000 tested, about 20% had one in any assay. Activity calls are given as the source filed them. Rule for the calls: active = growth percent below 10; inactive = the rest.
Thanks in advance; please answer with one of these: 1 = active, -1 = inactive

compound | assigned-label
CC[n+]1c(C)ccc2cc(C)ccc21 | -1
Cc1ccc(C(=O)NN)cc1 | -1
COc1cc(-c2nn(-c3ccc(NC(=O)Nc4ccc(Cl)c(Cl)c4)cc3)cc2-c2ccncc2)ccc1Cl | -1
COc1cc(-c2nn(-c3ccc(NC(=O)c4cc(Cl)cc(Cl)c4)cc3)cc2-c2ccncc2)ccc1Cl | -1

Qu. Per the assay record, what outcome was assigned to CCCNC(=O)Oc1ccc(/C(=C(/C)Cc2ccc(OC)cc2)c2ccc(OCCN3CCCC3)cc2)cc1 ?
Ans. -1

Qu. Record lookup: outcome of this test for C/C=C(/C)C(=O)OC1C=C(CO)C(=O)C(OC(=O)C(C)(O)C(C)Cl)C1C(C)C (stereo not given) ?
Ans. 1

Qu. How did this test come out for COc1ccc2c(N)ncc(C#Cc3cc(C(=O)Nc4ccc(CN5CCN(C)CC5)c(C(F)(F)F)c4)cnc3C)c2c1 ?
Ans. -1

Qu. Kindly provide the recorded test outcome for the following compound: COC(=O)c1cc(=O)nc(N/N=C/c2ccccc2O)s1
Ans. -1

Qu. # outcome recorded in this test, key = O=C(NCCO)C(F)(F)F
Ans. -1

Qu. # lookup: test call for N#CC1=C(N2CCOCC2)NC2c3ccccc3Sc3ccccc3N2C1=N (stereo not given)
Ans. -1

All values here come from PubChem BioAssay (NCI).
